These measurements were taken from paper PMC8842248.

biological target: T1, PDE6D M20K, untagged (UniProt O43924 1-150, M20K); experiment: fluorescence polarisation; fluorescein-labeled KRAS S3I1 peptide at 5 nM, PDE6D 0-512 nM in twofold dilutions; 20 mM Tris pH 7.5, 150 mM NaCl, 2 mM DTT; quadratic fit in GraFit; conditions: both partners purified
T1 construct: PDE6D with M20K; Printed as 'untagged PDE6D.M20K' in the pulldown and release assay; also called attenuated PDE6D
T1 sequence (O43924 whole entry M20K): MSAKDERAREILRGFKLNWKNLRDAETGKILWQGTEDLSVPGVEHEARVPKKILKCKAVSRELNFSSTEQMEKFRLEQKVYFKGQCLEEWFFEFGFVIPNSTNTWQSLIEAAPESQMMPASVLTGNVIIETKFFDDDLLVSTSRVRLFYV
*: point of attachment. fluorescein = fluorescein label on the N-terminus; Farnesyl = CC(C)=CCC/C(C)=C/CC/C(C)=C/C*
metric: Kd (nM)
Could you give me the number in nM? Just the number is fine.

Data request: Param item = fluorescein-DGKKKKKKSSTIC(Farnesyl)-OMe (also called KRAS S3I1 variant; source: synthetic peptide (JPT Innovative Peptide Solutions)) [KRAS S3I1 peptide, fluorescein-DGKKKKKKSSTIC(OMe)-farnesyl] ; retrieve measured Kd.
Data returned: 2.62
